Assay: Antioxidant activity assessed as DPPH free radical scavenging activity by spectrophotometric assay
Format: physicochemical
recorded-endpoint: IC50 (µg/mL)
Write the answer as a number in µg/mL, unit excluded.

Entry under review: O=C(Cn1cc(CC(O)c2ccc(S(=O)(=O)c3ccccc3)cc2)nn1)c1ccc(S(=O)(=O)c2ccccc2)cc1 (stereo not drawn) . Reported IC50?
74

Would you kindly share the measured IC50 for O=C(Cn1cc(CC(O)c2ccc(S(=O)(=O)c3ccccc3)cc2)nn1)c1ccc(F)cc1 (stereo not drawn) ?
275

Suppose we examine the compound CC(O)(Cc1cn(CC(=O)c2ccc(Br)cc2)nn1)c1ccc(S(=O)(=O)c2ccccc2)cc1 (stereo not drawn) ; what IC50 value has been reported?
800

What value of measured IC50 is listed for O=S(=O)(c1ccccc1)c1ccc(C(Cc2cn(Cc3ccccc3)nn2)OCc2cn(Cc3ccccc3)nn2)cc1 (stereo not drawn) ?
500

Dear colleague, I am looking for the recorded IC50 of the following compound: CC(O)(Cc1cn(Cc2ccccc2)nn1)c1ccc(S(=O)(=O)c2ccccc2)cc1 (stereo not drawn)
600

Need IC50 of CC(O)(Cc1cn(CC(=O)c2ccc(F)cc2)nn1)c1ccc(S(=O)(=O)c2ccccc2)cc1 (stereo not drawn) , thanks.
425

// returns reported IC50 for input CC(Cc1cn(CC(=O)c2ccc(F)cc2)nn1)(OCc1cn(CC(=O)c2ccc(F)cc2)nn1)c1ccc(S(=O)(=O)c2ccccc2)cc1 (stereo not drawn)
150

If you can, please state the reported IC50 value of O=C(Cn1cc(CC(O)c2ccc(S(=O)(=O)c3ccccc3)cc2)nn1)c1ccccc1 (stereo not drawn) .
425
